Ref: ChEMBL document CHEMBL5537137

test: Cytotoxicity against human NCI-H460 cells incubated for 72 hrs by CCK-8 assay
reported.property: CC50 at 72 h (µM)
Give your result in µM as a bare value.

Recorded CC50 at 72 h (compound CN(C)C1CC(Oc2ccc(NC(=O)c3ccc(OCCC(F)(F)F)c([N+](=O)[O-])c3)cc2C(F)(F)F)C1 (configuration not stated) ): 31.3

Please fill in: CC50 at 72 h reported for `CN1CCN(Cc2ccc(NC(=O)c3ccc(OCCCCl)c(S(N)(=O)=O)c3)cc2C(F)(F)F)CC1` = 40.4

CC50 at 72 h in this record for `CN1CCN(Cc2ccc(NC(=O)c3ccc(OCCCCl)c([N+](=O)[O-])c3)cn2)CC1` : 43.7

The compound listed as `CN(C)C1CN(Cc2ccc(NC(=O)c3ccc(OCCCCl)c([N+](=O)[O-])c3)cc2C(F)(F)F)C1` has a reported CC50 at 72 h of 49.8

The compound `CN(C)C1CCN(Cc2ccc(NC(=O)c3ccc(OCCCCl)c([N+](=O)[O-])c3)cc2C(F)(F)F)CC1` showed CC50 at 72 h equal to 18.5

CC50 at 72 h in this record for `CN(C)C1CN(Cc2ccc(NC(=O)c3ccc(OCCF)c([N+](=O)[O-])c3)cc2C(F)(F)F)C1` : 75.2

For reference, reported CC50 at 72 h for `CN1CCN(Cc2ccc(NC(=O)c3ccc(OCCCCl)c(C(F)(F)F)c3)cc2C(F)(F)F)CC1` stands at 6.2

CN(C)C1CCN(Cc2ccc(NC(=O)c3ccc(OCCCCl)c([N+](=O)[O-])c3)cc2C(F)(F)F)C1 (configuration not stated) yielded CC50 at 72 h of 28.2

CC50 at 72 h for `CN(C)C1CN(Cc2ccc(NC(=O)c3ccc(OCC45CC6CC(CC(C6)C4)C5)c([N+](=O)[O-])c3)cc2C(F)(F)F)C1` is 4.63

For this compound ( `CN1CCN(Cc2ccc(NC(=O)c3ccc(OCCCF)c([N+](=O)[O-])c3)cc2C(F)(F)F)CC1` ), measured CC50 at 72 h is 17.8

CC50 at 72 h reading for `CCC(=O)Nc1cc(C(=O)Nc2ccc(CN3CCN(C)CC3)c(C(F)(F)F)c2)ccc1OCCCCl` : 27.1

Form: compound = `CN1CCN(Cc2ccc(NC(=O)c3ccc(OCCCCl)c(F)c3)cc2C(F)(F)F)CC1` ; CC50 at 72 h = 13.4

Documented CC50 at 72 h of `CN1CCN(Cc2ccc(NC(=O)c3ccc(F)c(C(F)(F)F)c3)cc2C(F)(F)F)CC1` : 14.5

The compound identified as CN(C)C1CC(Oc2ccc(NC(=O)c3ccc(OCc4cc(C(F)(F)F)cc(C(F)(F)F)c4)c([N+](=O)[O-])c3)cc2C(F)(F)F)C1 (configuration not stated) registered its CC50 at 72 h at 17
